Target: Polyunsaturated fatty acid lipoxygenase ALOX12 (Homo sapiens)
Experiment: qHTS Assay for Inhibitors of 12-hLO (12-human lipoxygenase); further: on the % scale 0 is the no-effect control and ±100 the full control effect; nearly all actives have a fitted effect of over 55% in size
Details: purified 12-hLO, xylenol orange hydroperoxide absorbance; series mostly up to 57.1 µM
Screen size: about 150,000 compounds; about 190 (0.13%) were called active. Inconclusive results (about 2%) are left out. For the sample, actives were picked, then their nearest neighbours and some compounds at random.
readout.kind: activity change, negative = inhibition

COc1ccc([N+](=O)[O-])cc1NC(=O)C(C)OC(=O)C1c2ccccc2Oc2ccccc21 (stereo unspecified)	inactive
N#Cc1ccsc1NC(=O)CN1CCN(S(=O)(=O)c2cc(Cl)ccc2Cl)CC1	inactive
O=[N+]([O-])c1ccc(NCCCO)c(C(F)(F)F)c1	inactive
Cc1cccc([C@H]2[C@@H]3C=CC[C@@H](C)[C@@H]3C(=O)N2Cc2ccccc2)c1	-6.11% [at 0.00818 µM] (inactive)
COC(=O)CC1c2ccccc2C(Cc2ccc(OC)cc2)=C(C)N1C(=O)OC (stereo unspecified)	2.48% [at 11.4 µM] (inactive)
Cc1ccc(NC(=O)Cn2nc(C)c3ccccc3c2=O)c(C)c1	inactive

###

Biological target: Polyunsaturated fatty acid lipoxygenase ALOX12 (Homo sapiens) (UniProt P18054)
Sequence (P18054 whole entry, looked up): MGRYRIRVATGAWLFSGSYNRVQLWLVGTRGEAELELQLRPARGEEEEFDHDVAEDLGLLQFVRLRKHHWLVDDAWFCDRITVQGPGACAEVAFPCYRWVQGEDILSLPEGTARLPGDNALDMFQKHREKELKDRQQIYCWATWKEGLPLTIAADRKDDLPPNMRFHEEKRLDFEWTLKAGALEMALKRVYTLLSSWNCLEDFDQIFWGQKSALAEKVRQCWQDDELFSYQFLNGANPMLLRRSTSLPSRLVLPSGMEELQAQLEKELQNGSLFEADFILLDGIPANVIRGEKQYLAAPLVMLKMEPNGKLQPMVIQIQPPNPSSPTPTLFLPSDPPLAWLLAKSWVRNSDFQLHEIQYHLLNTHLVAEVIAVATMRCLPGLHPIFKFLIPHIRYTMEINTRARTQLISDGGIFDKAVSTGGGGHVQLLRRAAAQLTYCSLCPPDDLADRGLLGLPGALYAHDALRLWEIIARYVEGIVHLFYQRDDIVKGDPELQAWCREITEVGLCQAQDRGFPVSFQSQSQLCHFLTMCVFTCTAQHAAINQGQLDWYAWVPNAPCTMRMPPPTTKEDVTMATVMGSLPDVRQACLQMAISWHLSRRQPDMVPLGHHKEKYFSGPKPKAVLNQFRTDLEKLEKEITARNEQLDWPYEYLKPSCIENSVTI
Experiment: qHTS Assay for Inhibitors of 12-hLO (12-human lipoxygenase); further: on the % scale 0 is the no-effect control and ±100 the full control effect; nearly all actives have a fitted effect of over 55% in size
Settings: purified 12-hLO, xylenol orange hydroperoxide absorbance; series mostly up to 57.1 µM
Screen size: about 150,000 compounds; about 190 (0.13%) were called active. Not shown: some 2% with an inconclusive outcome. The list comes from a sample in which actives are over-represented; it also holds close analogues and randomly drawn compounds.
readout.kind: activity change, negative = inhibition

CCOc1ccc(-c2n[nH]c(=S)n2/N=C/c2cc3c(cc2[N+](=O)[O-])OCO3)cc1	inactive
COC(=O)Cc1ccc(NC(=S)NCc2ccc(Cl)cc2)cc1	inactive
CCCCS(=O)(=O)N1C2=NC(C(=O)OC)=C(C(=O)OC)[C@@H]3N(Cc4ccccc4)c4ccccc4[C@]23C[C@H]1C(=O)OC	2.88% [at 11.4 µM] (inactive)
COC(=O)C1=C(C(=O)OC)[C@@H]2Nc3ccccc3[C@@]23C[C@@H](C(=O)OC)N(S(=O)(=O)c2ccc([N+](=O)[O-])cc2)C3=N1	-6.39% [at 11.4 µM] (inactive)
NS(=O)(=O)c1ccc(CNC(=O)c2ccc(Cl)cc2[N+](=O)[O-])cc1	inactive
COc1ccccc1OCC(=O)OCn1c(SC)nnc(C)c1=O	inactive
CN(C)CCCNC(=S)NCc1ccc(Cl)cc1	inactive
C=C1C2C[C@H](O)C(C)(C)[C@@]2(O)[C@H](O)C[C@]23C[C@@](C)(O)[C@H](CC[C@H]12)[C@H]3O (some centres undefined)	inactive
COc1ccc(CCNC(=O)/C(C#N)=C2\N=C(NC(=O)c3cccs3)c3ccccc32)cc1	inactive
COc1ccccc1N=Cc1c(O)c2ccccc2oc1=O	inactive
COc1ccc(C(=O)Nc2ccc(S(=O)(=O)NC(C)C)cc2)cc1	inactive
COCCNC(=O)c1ccc(N2CCC3(CC2)OCCO3)c([N+](=O)[O-])c1	inactive
COc1ccc(CCNC(=O)COC(=O)C2CCCCC2)cc1	inactive
CCOC(=O)C1=C(C(=O)OCC)C(C(=O)OCC)N(S(=O)(=O)C(F)(F)F)c2ccccc21 (centres undefined)	-4.37% [at 0.00818 µM] (inactive)
COc1cccc(CC(=O)N2CCc3nc(COc4ccccc4)c4c(c3C2)CO[C@@H](C)C4)c1	-2.68% [at 11.4 µM] (inactive)
Cn1nccc1CNC(=O)c1ccnn1C	inactive
C[C@@H]1C(c2ccc(F)cc2)=NN(c2ccc(Br)cc2)[C@H]1C(=O)N1CCOC1=O	-4.22% [at 0.00818 µM] (inactive)
CCS(=O)(=O)Nc1cccc(-c2cc(-c3ccccc3)c3cc(C)ccc3n2)c1	inactive
O=C(Nc1ccc(N2C(=O)c3cccc4cccc(c34)C2=O)cc1)c1ccc(N2CCCCC2)c([N+](=O)[O-])c1	inactive
